Test system: HCT116
Assay: efficacy (fitted maximal change in viability relative to DMSO control); higher = less cytotoxic (negative = loss of viability)
Conditions: 48 h
Overview of recorded efficacy for various compounds
Give the number; % is assumed, so skip it.

Study these solved cases before continuing.
CCC[S+](=O)([O-])Nc1ccc(F)c(C(=O)c2c[nH]c3ncc(-c4ccc(Cl)cc4)cc23)c1F [Vemurafenib] :: 9.66
COc1ccccc1N1CCN(CC(O)COc2cccc3ccccc23)CC1 (stereo not drawn) [Naftopidil] :: -57.2
Nc1cc(C(F)(F)F)c(-c2nc(N3CCOCC3)nc(N3CCOCC3)n2)cn1 [Bimiralisib] :: -60.2

Input line: For the compound COC1=CC=C2/C3=N/CCN3\C(=N/C2=C1OC)NC(=O)C4=CC=CN=C4 [PIK-90] , give its reported efficacy.
Output line: -37.1

Input line: Determine from records and report efficacy for CC[C@@H]([C@H](C)O)N1\N=C/N(C1=O)C2=CC=C(C=C2)N3CCN(CC3)C4=CC=C(OCC5CO[C@@](C5)(C[N]6C=NC=N6)C7=C(F)C=C(F)C=C7)C=C4 (stereo partly drawn) [Posaconazole]
Output line: -58.4

Input line: Retrieve efficacy measured for O=C(Nc1ccc(OC(F)(F)F)cc1)c1sccc1NCc1ccnc2ccccc12 [OSI-930] and print it.
Output line: -77.4

Input line: For the compound CC(=O)NCCC(=O)N[C@@H](CCC(N)=O)C(=O)N[C@@H](CO)C(=O)N[C@@H](CCC(N)=O)C(=O)N[C@@H](CCC(N)=O)C(=O)N[C@H](C(=O)N[C@@H](Cc1ccccc1)C(=O)N[C@]1(C)CCCCCC/C=C\CCC[C@@](C)(C(=O)N[C@@H](CCC(N)=O)C(=O)N[C@@H](CC(N)=O)C(N)=O)NC(=O)[C@H](CC(C)C)NC(=O)[C@H](CC(C)C)NC(=O)[C@@H](CCCNC(=N)N)NC(=O)[C@H](Cc2c[nH]c3ccccc23)NC(=O)[C@H](CC(C)C)NC(=O)[C@H](CC(N)=O)NC1=O)[C@H](C)O [Ac-SAH-p53-8] , give its reported efficacy.
Output line: -6.69

Input line: Report efficacy, nothing else, for this compound: CNCC(O)c1ccc(O)cc1 (stereo not drawn) [Synephrine]
Output line: -16.7

Input line: Consider the compound COc1ccc(-c2c(-c3ccc(O)cc3O)n[nH]c2C)cc1 [PDHK RIKEN] and give its recorded efficacy.
Output line: -47.1

Input line: Using known records, supply efficacy for CC/1=C2/N(C(=O)C(=C1)/NC3=CC(=NC=N3)N)C4(CCCCC4)NC2=O [eFT508]
Output line: -7.54

Input line: Tell me measured efficacy for C[C@@H]1C[C@H]2[C@@H]3CC\C4=C\C(=O)\C=C/[C@]4(C)[C@@]3(Cl)[C@@H](O)C[C@]2(C)[C@@]1(OC(=O)C5=CC=CO5)C(=O)CCl [Mometasone furoate] please.
Output line: -78.7

Input line: Give the measured efficacy for OC(CCN1CCCCC1)(C2CC\3CC2\C=C3)C4=CC=CC=C4 (stereo not drawn) [Biperiden]
Output line: -34.7

Input line: For the compound C[C@H]1CNC(=O)c2cnn3ccc(nc23)N[C@H](C)c2cc(F)ccc2O1 [TPX-0005] , give its reported efficacy.
Output line: -87.5

----------
Tested on: HCT116
Assay: AC50 cell viability (CellTiter-Glo); higher = less potent
Conditions: 48 h
Form field: AC50 cell viability (one value per entry).
Number only, in µM; omit the unit.

Cl.Cl.Cl.O[C@@H](COc1cccc2ncccc12)CN1CCN([C@@H]2c3ccccc3[C@@H]3[C@H](c4ccccc42)C3(F)F)CC1 [Zosuquidar trihydrochloride] :: 16.6
CN1CCC(CC1)COC2=CN=C(N=C2)C3=CC(=CC=C3)CN4/N=C(\C=C/C4=O)C5=CC(=CC=C5)C#N :: 7.42
Nc1nc(Nc2ccc3c(c2)CC[C@@H](N2CCCC2)CC3)nn1-c1cc2c(nn1)-c1ccccc1CCC2 :: 14.8

Input line: Please look at this compound and report its AC50 cell viability: CN[C@@H](C)C(=O)N[C@H]1CCCC[C@H]2CC[C@@H](C(=O)N[C@@H](c3ccccc3)c3cn(CCCCc4ccc(CCCCn5cc([C@@H](NC(=O)[C@@H]6CC[C@@H]7CCCC[C@H](NC(=O)[C@H](C)NC)C(=O)N76)c6ccccc6)nn5)cc4)nn3)N2C1=O
Output line: 23.5

Input line: Answer with the recorded AC50 cell viability of NC(=O)c1cccc2nc(-c3ccc([C@H]4CCCN4)cc3F)[nH]c12 only.
Output line: 10.5

Input line: Query AC50 cell viability for Cc1cccc(-c2[nH]c(C(C)(C)C)nc2-c2ccc3c(c2)OCO3)n1
Output line: 2.95
